System: A498 renal
Test: NCI tumour cell line growth inhibition, 48 h
Experimental Endpoint: TGI (µM)

COc1ccc(C(=O)c2cc(C)c(OC)c(C)c2)c(OC)c1O: 6.03
CCc1nc2cc(F)c(/C=C/C(=O)NO)cc2c(=O)n1CCc1ccccc1: 0.736
O=C1/C(=C(/c2ccccc2)N2CCOCC2)Cc2ccccc21: 11.4
Cn1c(O)c(C(=O)NC2CCCCC2)c(=O)n(C)c1=S: 13
CN(C(=O)Cc1cccc(N=C=S)c1)[C@H]1CCCC[C@@H]1N1CCCC1: 32.8
CCCCC(CC)COC(=O)C[N+](C)(C)CCOC(c1ccccc1)c1ccccc1 (stereo unspecified): 15.2
CCOC(=O)c1ccc(N[C@@H]2c3cc4c(cc3C(c3cc(OC)c(O)c(OC)c3)[C@H]3C(=O)OCC32)OCO4)cc1O (stereo partly specified): 2.81

###

System: CAKI-1 renal
Test: NCI tumour cell line growth inhibition, 48 h
Measured TGI of individual entries
Experimental Endpoint: TGI

CCOC(=O)c1cc2c3ccn(Cc4ccccc4)c3c3c(C)[nH]oc3c2n1: > 100 µM
COCCCNc1nc(N)c(C#N)c(C#N)c1C#N: > 10 µM
O=C(Nc1ccccc1-c1nc2ccccc2[nH]c1=O)c1ccccc1: 86.8 µM
CC1=CC(C)(C)N=C2SC(c3ccc(N)cc3)=NN12: > 100 µM

###

Tested on: DMS 114 small cell lung
Assay: NCI tumour cell line growth inhibition, 48 h
Here the recorded TGI is given for each entry.
Experimental Endpoint: TGI

CC1=CCC(O)C=CC(C)C(O)C(C)C=C(C)C(=O)c2c(O)c(C)cc3c2C(=O)C(N)=C(NC(=O)/C=C\C=C/C=CC(C)C(O)CC1=O)C3=O (stereo unspecified): > 100 µM
CC1=CC(C)(C)N=C2SC(c3ccc(N)cc3)=NN12: > 100 µM
Cc1cc(NS(=O)(=O)c2ccc(Nc3c4ccccc4nc4c(C(=O)N5CCN(CCO)CC5)cccc34)cc2)no1: > 100 µM
CCCC1=C(CC)C(C(=O)Nc2c(C)cccc2C)=NC(S)N1 (stereo unspecified): > 100 µM
COc1cc2[nH]c3c(c2cc1OC)CCN[C@]31CC[C@]2(CC3c4c(cc(OC)c(O)c42)CCN3C)C[C@H]1OC (stereo partly specified): 31.4 µM
CCOC(=O)C(=O)Nc1ccccc1CC: > 100 µM
COc1cc(/C=C/c2ccc(OC)c(O)c2)cc(OC)c1: 17.9 µM
O=c1cc(-c2ccc(Oc3ccccc3)cc2)[nH]c2cc3c(cc12)OCO3: > 100 µM
CNC(=S)/N=C(\N)N(C)C: > 100 µM
CC(=O)Nc1ccc(/C=C/c2ccc(NC(=O)Nc3ccc(/C=C/c4ccc(NC(C)=O)cc4S(=O)(=O)O)c(S(=O)(=O)O)c3)cc2S(=O)(=O)O)c(S(=O)(=O)O)c1: > 100 µM
O=C(CC(=O)n1nc(-c2ccccc2)c(N=Nc2ccc(Cl)cc2)c1-c1ccccc1)Nc1ccc(Cl)cc1: > 56.9 µM
COC(=O)C(Cc1nc2ccccc2[nH]c1=O)C(NO)C(=O)Nc1c(Cl)cc([N+](=O)[O-])cc1Cl (stereo unspecified): 54.8 µM
Cc1nnc(NS(=O)(=O)c2ccc(N=Nc3cc(N=Nc4ccc(S(=O)(=O)Nc5nnc(C)s5)cc4)c4c(NC(=O)C(Cl)Cl)cccc4c3OC(=O)C(Cl)Cl)cc2)s1 (tested in a mixture with another compound): 62.5 µM
COc1ccc(CN2CC(C)(C)C2=O)c(OC)c1: > 100 µM
O=C1C2C3C=C4c5ccccc5N(c5ccccc5)C4(C2C(=O)N1c1ccc([N+](=O)[O-])cc1)[C@H]1C(=O)N(c2ccc([N+](=O)[O-])cc2)C(=O)[C@@H]31 (stereo partly specified): > 100 µM
CC1=[N+]([O-])c2ccccc2C(=O)C1=O: > 100 µM
